systemName: hCRTH2 (Homo sapiens, UniProt Q9Y5Y4)
assay: biochemical
conditionSet: Radioligand Binding Assay A, 3.0 nM [3H]PGD2, HEK-hCRTH2 membranes
readoutName: Ki (nM)
Report as a plain number; the unit nM is understood.

Query: Report the value of Ki obtained on hCRTH2 (Homo sapiens, UniProt Q9Y5Y4) for CCc1ccc(C(=O)N2c3cc(Cl)ccc3C(N(C(=O)CCC(=O)O)C3CCC3)C3CCCC32)cc1 (single isomer, unassigned) [17CQ] .
Reply: 2.4

---

systemName: hCRTH2 (Homo sapiens)
Sequence (Q9Y5Y4 1-395): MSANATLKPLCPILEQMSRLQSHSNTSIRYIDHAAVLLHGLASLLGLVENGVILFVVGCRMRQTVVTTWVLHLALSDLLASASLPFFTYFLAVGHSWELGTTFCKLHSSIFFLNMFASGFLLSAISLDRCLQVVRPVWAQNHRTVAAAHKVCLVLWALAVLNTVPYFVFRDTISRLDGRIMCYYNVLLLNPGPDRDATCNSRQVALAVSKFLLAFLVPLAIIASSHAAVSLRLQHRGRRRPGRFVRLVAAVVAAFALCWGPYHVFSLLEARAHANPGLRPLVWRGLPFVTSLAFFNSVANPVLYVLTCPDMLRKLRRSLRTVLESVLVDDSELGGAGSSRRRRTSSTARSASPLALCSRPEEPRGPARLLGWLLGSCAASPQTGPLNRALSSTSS
Design: expressed in transfected cells; host or cells: HEK (human embryonic kidney) cell line expressing hCRTH2
conditionSet: Radioligand Binding Assay B, 0.7 nM [3H]PGD2, HEK-hCRTH2 membranes; rated A-D
readoutName: Ki

Query: Given the compound O=C(O)CCC(=O)N(C1CC1)[C@@H]1c2ccc(F)cc2N(C(=O)c2ccccc2)[C@@H]2CCC[C@@H]21 (racemic) [16D] , write its reported Ki.
Reply: 0.0201 to 0.2 µM
